assay-comment: Stability in porcine plasma assessed as half life
Assay type: ADME, cell-free, Sus scrofa
settings: pig
assay-endpoint: half-life (h)

molecular_string=O=C(CS)NCCCCCC(=O)Nc1cccc2cccnc12 unit_tag=h endpoint_result=1.15
molecular_string=CN(C)c1ccc(C(=O)NCCCCCNC(=O)CS)cc1 unit_tag=h endpoint_result=1.48

* * *

target-of-assay: UniProtKB Q9UBN7
Sequence (Q9UBN7 whole entry): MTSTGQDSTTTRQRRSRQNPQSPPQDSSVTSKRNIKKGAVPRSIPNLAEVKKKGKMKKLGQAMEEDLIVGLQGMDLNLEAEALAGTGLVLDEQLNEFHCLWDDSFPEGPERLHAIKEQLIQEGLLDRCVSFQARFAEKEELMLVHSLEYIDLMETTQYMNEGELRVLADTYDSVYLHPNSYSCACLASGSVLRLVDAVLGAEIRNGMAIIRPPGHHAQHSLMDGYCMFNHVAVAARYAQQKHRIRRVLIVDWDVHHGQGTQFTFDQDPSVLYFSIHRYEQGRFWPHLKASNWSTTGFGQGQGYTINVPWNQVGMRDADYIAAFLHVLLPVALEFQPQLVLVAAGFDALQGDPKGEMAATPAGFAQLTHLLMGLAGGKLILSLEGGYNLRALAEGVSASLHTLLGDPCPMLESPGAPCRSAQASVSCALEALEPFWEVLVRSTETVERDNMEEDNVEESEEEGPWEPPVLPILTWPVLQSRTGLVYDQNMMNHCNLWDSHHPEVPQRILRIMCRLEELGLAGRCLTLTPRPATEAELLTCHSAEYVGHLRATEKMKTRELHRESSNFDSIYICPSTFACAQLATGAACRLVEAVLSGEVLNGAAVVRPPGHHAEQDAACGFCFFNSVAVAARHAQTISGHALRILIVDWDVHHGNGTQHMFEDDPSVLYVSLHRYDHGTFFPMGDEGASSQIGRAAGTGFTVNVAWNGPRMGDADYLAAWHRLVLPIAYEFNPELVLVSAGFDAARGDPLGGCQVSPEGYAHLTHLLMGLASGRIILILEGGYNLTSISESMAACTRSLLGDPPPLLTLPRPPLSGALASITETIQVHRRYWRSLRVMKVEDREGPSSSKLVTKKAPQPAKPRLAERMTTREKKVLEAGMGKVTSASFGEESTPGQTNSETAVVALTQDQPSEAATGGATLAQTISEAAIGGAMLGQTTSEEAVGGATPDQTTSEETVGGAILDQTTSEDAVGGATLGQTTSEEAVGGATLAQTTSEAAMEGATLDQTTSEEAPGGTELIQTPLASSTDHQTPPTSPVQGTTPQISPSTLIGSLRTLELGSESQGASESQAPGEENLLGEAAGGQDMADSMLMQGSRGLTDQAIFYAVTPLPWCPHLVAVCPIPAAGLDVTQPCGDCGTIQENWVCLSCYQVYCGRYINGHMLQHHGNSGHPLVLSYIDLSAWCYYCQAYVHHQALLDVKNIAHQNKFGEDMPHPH
assay-comment: Inhibition of human HDAC6 using FAM-labeled acetylated peptide as substrate incubated for 17 hrs by fluorescence based assay
Reported pIC50 by item:
Would you please state pIC50, meaning minus log10 of the concentration in mol/L, as a bare number?

# input compound: N[C@@H](Cc1c[nH]c2ccccc12)C(=O)Nc1ccccc1-c1ccc(NC(=O)CCCCCNC(=O)CS)cc1 ; wanted: its pIC50
6.18

# input compound: N[C@@H](Cc1ccccc1)C(=O)Nc1ccccc1-c1ccc(NC(=O)CCCCCNC(=O)CS)cc1 ; wanted: its pIC50
6.35

# input compound: NCC(=O)Nc1ccccc1-c1ccc(NC(=O)CCCCCNC(=O)CS)cc1 ; wanted: its pIC50
6.41

* * *

target-of-assay: Histone deacetylase 1 (Homo sapiens, UniProt Q13547)
Sequence (Q13547 whole entry): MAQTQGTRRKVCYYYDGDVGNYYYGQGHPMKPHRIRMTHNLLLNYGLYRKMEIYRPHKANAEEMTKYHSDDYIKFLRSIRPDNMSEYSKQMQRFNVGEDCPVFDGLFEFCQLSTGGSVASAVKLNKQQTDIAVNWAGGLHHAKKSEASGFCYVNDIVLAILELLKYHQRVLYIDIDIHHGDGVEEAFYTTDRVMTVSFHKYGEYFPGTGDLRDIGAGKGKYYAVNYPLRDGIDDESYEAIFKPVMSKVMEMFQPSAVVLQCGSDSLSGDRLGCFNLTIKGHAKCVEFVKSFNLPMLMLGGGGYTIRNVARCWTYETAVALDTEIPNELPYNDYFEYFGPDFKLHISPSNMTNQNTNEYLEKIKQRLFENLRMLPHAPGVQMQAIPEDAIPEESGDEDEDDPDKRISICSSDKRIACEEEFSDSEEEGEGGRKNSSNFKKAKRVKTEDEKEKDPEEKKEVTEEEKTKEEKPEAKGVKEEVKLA
assay-comment: Inhibition of human HDAC1
assay-endpoint: IC50 (µM)

P = O=C(/C=C/c1ccccc1Cl)NO
Q = O=C(CS)NCCCCCn1ccc2cc(Cl)c(Cl)cc21
Which value of IC50 is numerically greater: that of P or that of Q ? Answer by quoting the chosen item's label.
Q

* * *

assay-comment: Tmax in mouse at 400 mg/kg, ip
Format: ADME, organism-based
settings: in vivo
assay-endpoint: Tmax (min)

molecular_string=CN(C)c1ccc(C(=O)NCCCCCNC(=O)CS)cc1 assay_endpoint=Tmax endpoint_result=30
molecular_string=O=C(CS)NCCCCCC(=O)Nc1cccc2cccnc12 assay_endpoint=Tmax endpoint_result=30

* * *

assay-comment: Stability in mouse plasma assessed as half life
Format: ADME, cell-free
assay-endpoint: half-life (h)

1 = CN(C)c1ccc(C(=O)NCCCCCNC(=O)CS)cc1
2 = O=C(CS)NCCCCCC(=O)Nc1cccc2cccnc12
Please compare: 1 and 2 . Report which one has the smaller half-life value. Answer by quoting the chosen item's label.
2

* * *

Reported IC50 by item:
target-of-assay: Histone deacetylase 1 (Homo sapiens)
assay-comment: Inhibition of human full length recombinant HDAC1 expressed in baculovirus infected Sf9 cells using RHKKAc as substrate preincubated for 5 to 10 mins followed by substrate addition and measured after 2 hrs by fluorescence based analysis

compound="Cc1onc(-c2ccccc2)c1C=CCCCCCNC(=O)C(C)(C)S (mixture of isomers)" target_of_assay="Histone deacetylase 1 (Homo sapiens)" assay_endpoint=IC50 endpoint_result="> 30 µM"
compound="Cc1noc(-c2ccccc2)c1C#CCCCCCNC(=O)C(C)S (racemic)" target_of_assay="Histone deacetylase 1 (Homo sapiens)" assay_endpoint=IC50 endpoint_result="2.7 µM"
compound=Cc1onc(-c2ccccc2)c1/C=C/c1ccc(CNC(=O)C(C)(C)S)cc1 target_of_assay="Histone deacetylase 1 (Homo sapiens)" assay_endpoint=IC50 endpoint_result="> 30 µM"
compound=Cc1onc(-c2ccccc2)c1/C=C/CCCCCNC(=O)CS target_of_assay="Histone deacetylase 1 (Homo sapiens)" assay_endpoint=IC50 endpoint_result="28 µM"
compound="Cc1onc(-c2ccccc2)c1C(=O)NCCCCCNC(=O)C(C)S (racemic)" target_of_assay="Histone deacetylase 1 (Homo sapiens)" assay_endpoint=IC50 endpoint_result="> 30 µM"

Now look at this entry.
# input compound: Cc1onc(-c2ccccc2)c1C=CCCCCCNC(=O)CS (mixture of isomers) ; wanted: its IC50
> 30 µM
